# thermal shift delta Tm per record follows
System: LOC_OS05G30820-cb001;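 note: purified Escherichia coli-expressed rice kinase domain construct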
Assay: thermal shift delta Tm vs DMSO control; higher = stronger stabilization (binding)
Details: 12.5 µM; protein concentration 2 µM
Where a name gives a salt, the structure may show the parent alone.
Reported property: thermal shift delta Tm

INSERT INTO results (compound, result_value) VALUES
  ('CCc1cccc(CC)c1NC(=O)N1Cc2[nH]nc(NC(=O)c3ccc(N4CCN(C)CC4)cc3)c2C1', '0.78 °C'),
  ('NC[C@@](O)(c1ccc(Cl)cc1)c1ccc(-c2cn[nH]c2)cc1', '0.47 °C'),
  ('C=C(C)[C@@H]1CC[C@]2(C)CC[C@]3(C)[C@H](CC[C@@H]4[C@@]5(C)CC[C@H](O)C(C)(C)[C@@H]5CC[C@]43C)[C@@H]12', '0.38 °C'),
  ('O=c1c(-c2ccc(O)cc2)coc2cc(O)cc(O)c12', '0.78 °C'),
  ('COC(=O)c1ccc2c(c1)NC(=O)/C2=C(\Nc1ccc(N(C)C(=O)CN2CCN(C)CC2)cc1)c1ccccc1', '0.35 °C'),
  ('C[C@H]1CNC(=O)c2cnn3ccc(nc23)N[C@H](C)c2cc(F)ccc2O1', '0.11 °C'),
  ('CC(C)(C)NS(=O)(=O)c1cncc(-c2cc(F)c3nc(N)nn3c2)c1', '0.53 °C'),
  ('C[C@H]1CNCCCN1S(=O)(=O)c1cccc2cncc(F)c12 [Ripasudil (K-115) hydrochloride dihydrate]', '0.26 °C'),
  ('Clc1ccc(C2(c3ccc(-c4cn[nH]c4)cc3)CCNCC2)cc1', '0.51 °C'),
  ('COc1cc2nccc(Oc3ccc(NC(=O)NC4CC4)c(Cl)c3)c2cc1C(N)=O [Lenvatinib (E7080)]', '0.7 °C'),
  ('Oc1c2ccccc2c2c3c(cccc13)N=N2', '1.62 °C'),
  ('COc1ccc(CNC(=O)Nc2ncc([N+](=O)[O-])s2)cc1', '0.63 °C'),
  ('CCS(=O)(=O)Nc1ccc2c(c1)/C(=C(/Nc1ccc(CN3CCCCC3)cc1)c1ccccc1)C(=O)N2', '2.48 °C'),
  ('COc1cc(OC)c(C=C2C(=O)Nc3ccccc32)c(OC)c1', '0.46 °C'),
  ('COc1cccc(-c2cc(=O)c3ccccc3o2)c1N', '0.41 °C'),
  ('CC(C)(O)CNc1ncc(-c2ccnc(Nc3ccnc(Cl)c3)n2)c(CC2CC2)n1', '0.41 °C'),
  ('CCNc1nc(Nc2cc(F)c(C(=O)N3CCOCC3)cc2OC)ncc1C(F)(F)F', '0.46 °C'),
  ('Cc1cnc(Nc2ccc(OCCN3CCCC3)cc2)nc1Nc1cccc(S(=O)(=O)NC(C)(C)C)c1', '0.92 °C'),
  ('Cc1ccc(CNc2ncnc3ccc(-c4ccc(CO)o4)cc23)o1', '0.29 °C');
